Test: Antibacterial activity against Eberthella typhosa ATCC 14028 after 18 to 24 hrs
Format: functional
Reported MIC by item:
Kindly answer with a numeric value in µg/mL, unit omitted.

A selection of reference data follows.
>>> readout_number("CCn1cc(C(C)=O)c(=O)c2cc(F)c(N3CCOCC3)cc21")
2.3
>>> readout_number("CCn1cc(C(C)=O)c(=O)c2cc(N3CCOCC3)c(Cl)cc21")
37.3
>>> readout_number("CCn1cc(C(C)=O)c(=O)c2cc(F)c(N3CCN(C(=O)OC(C)(C)C)CC3)cc21")
42.7

For the compound CCn1cc(C(C)=O)c(=O)c2cc(F)c(N3CCCC3)cc21 , what MIC is on record?
122

Try the compound CCn1cc(C(C)=O)c(=O)c2cc(N3CCCC3)c(Cl)cc21
18.7

Item: CCn1cc(-c2csc(N)n2)c(=O)c2cc(N3CCCCC3)c(Cl)cc21
17.2

Cool, now CCn1cc(-c2csc(N)n2)c(=O)c2cc(F)c(N3CCCCC3)cc21
74.7
